// provenance: patent US20200109188A1

system: HA of ca A/Perth/16/09 (H3N2) virus (influenza A virus)
protocol: cell-based or functional assay
measured-endpoint: Neutralization IC50, H3-Perth09 (µg/mL)
Respond with the bare value in µg/mL.

Endpoint output: Neutralization IC50, H3-Perth09 of Antibody 12 (antibody, V domains shown) VH: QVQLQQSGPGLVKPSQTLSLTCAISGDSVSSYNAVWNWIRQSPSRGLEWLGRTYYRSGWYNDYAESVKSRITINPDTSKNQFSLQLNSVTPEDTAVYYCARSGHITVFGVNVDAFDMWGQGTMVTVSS VL: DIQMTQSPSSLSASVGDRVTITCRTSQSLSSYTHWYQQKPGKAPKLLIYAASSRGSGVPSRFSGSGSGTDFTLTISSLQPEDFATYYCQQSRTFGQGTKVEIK . Value?
0.25
